- SYSTEM UNDER TEST: human GCG receptor (human, UniProt P47871 26-477)
- Sequence (P47871 26-477): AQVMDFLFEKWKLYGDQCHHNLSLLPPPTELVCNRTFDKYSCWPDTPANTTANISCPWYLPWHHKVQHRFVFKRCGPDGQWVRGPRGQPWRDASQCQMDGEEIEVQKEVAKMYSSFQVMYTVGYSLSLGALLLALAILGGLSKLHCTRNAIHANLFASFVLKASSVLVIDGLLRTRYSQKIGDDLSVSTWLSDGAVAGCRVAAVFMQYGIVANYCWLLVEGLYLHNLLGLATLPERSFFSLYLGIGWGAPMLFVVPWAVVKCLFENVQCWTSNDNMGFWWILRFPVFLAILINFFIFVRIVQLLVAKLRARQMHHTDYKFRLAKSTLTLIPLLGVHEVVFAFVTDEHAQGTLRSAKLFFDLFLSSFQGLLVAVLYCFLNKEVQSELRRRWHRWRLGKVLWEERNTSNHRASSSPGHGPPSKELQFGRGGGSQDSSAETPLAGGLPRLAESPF
- MEASUREMENT PROTOCOL: cell-based or functional assay
Bridges are numbered along the chain shown (N, C = ends). Where no end group is shown, it is not given here. [ ]: non-standard residue; d: D form. The star is where a group is joined. Acetyl(2-(4-imidazolyl)) = O=C(Cc1c[nH]cn1)*; Aib = CC(C)(N)C(=O)O
Classify by In vitro activity (%) vs. Glucagon, cAMP EC50. Ranges: category 1 = under 0.7%, category 2 = from 0.7% up to 20%, category 3 = 20% and over

[[record]]
binder = "Y[Aib]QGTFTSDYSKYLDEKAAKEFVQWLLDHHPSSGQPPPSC (bridge 16-20) [triple agonist of SEQ ID NO: 75]"
label_value = "category 2"

[[record]]
binder = "[Acetyl(2-(4-imidazolyl))]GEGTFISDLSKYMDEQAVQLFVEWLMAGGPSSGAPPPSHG [triple agonist of SEQ ID NO: 12]"
label_value = "category 1"

[[record]]
binder = "H[Aib]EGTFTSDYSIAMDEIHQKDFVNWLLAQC (bridge 16-20) [triple agonist of SEQ ID NO: 53]"
label_value = "category 2"

[[record]]
binder = "Y[Aib]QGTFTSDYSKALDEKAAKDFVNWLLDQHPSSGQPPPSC (bridge 16-20; ends not checked) [triple agonist of SEQ ID NO: 102]"
label_value = "category 3"

[[record]]
binder = "{Acetyl(2-(4-imidazolyl))}-[Aib]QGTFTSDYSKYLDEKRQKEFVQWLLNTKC (bridge 15-19) [triple agonist of SEQ ID NO: 88]"
label_value = "category 1"

[[record]]
binder = "{Acetyl(2-(4-imidazolyl))}-[Aib]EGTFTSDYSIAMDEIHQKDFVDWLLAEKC (bridge 15-19) [triple agonist of SEQ ID NO: 91]"
label_value = "category 2"

[[record]]
binder = "H[Aib]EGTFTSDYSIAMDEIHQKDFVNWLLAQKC (bridge 16-20) [triple agonist of SEQ ID NO: 79]"
label_value = "category 2"

[[record]]
binder = "Y[Aib]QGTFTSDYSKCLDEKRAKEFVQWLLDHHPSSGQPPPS (bridge 16-20) [triple agonist of SEQ ID NO: 22]"
label_value = "category 3"

[[record]]
binder = "[Acetyl(2-(4-imidazolyl))]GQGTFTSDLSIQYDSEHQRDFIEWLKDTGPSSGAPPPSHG [triple agonist of SEQ ID NO: 19]"
label_value = "category 1"

[[record]]
binder = "H[Aib]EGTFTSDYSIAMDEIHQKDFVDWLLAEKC (bridge 16-20) [triple agonist of SEQ ID NO: 80]"
label_value = "category 1"

